Experiment: A CellTox Green Cytotoxicity Assay to monitor cytotoxicity in HEK293 cells - 40 hour (AID 1224871); also: nearly all actives have a fitted effect of over 45% in size
Conditions: CellTox Green fluorescence; series mostly up to 76.8 µM
Description: National Center for Advancing Translational Sciences [NCATS] NIH Chemical Genomics Center [NCGC] U.S. Environmental Protection Agency [EPA] National Institutes of Environmental Health Sciences [NIEHS] National Toxicology Program [NTP] Cell-based models are critical for drug discovery. […] Viable cells produce no appreciable increases in fluorescence. Therefore, the fluorescence signal produced by the binding interaction with dead cell DNA is proportional to cytotoxicity. […]
Inconclusive results are not listed. Calls of active or inactive are those of the source. Calls follow the shape of the dose curve; as a rule, active = well fitted activation curve with a large enough effect in the repeat runs; inconclusive = weak or mixed curves; inactive = flat fitted curve, though single readings scatter.
Write down the outcome that applies. Available outcomes: YES = active, NO = inactive

Recorded results for 2 compounds are shown here.
>>> df
                                   compound  class_label
0  CC(=O)[O][Pb]([c]1ccccc1)([c]1ccccc1)[c]1ccccc1          YES
1  CC(C)(C)c1ccc(OP(=O)(Oc2ccccc2)Oc2ccccc2)cc1           NO

What call does the record list for CNC(=O)O/N=C(\C)C(C)S(C)(=O)=O (stereo not drawn) ?
NO

* * *

assay: qHTS RealTime-Glo MT Cell Viability Assay in HepG2 cells - 32 hour (AID 1224877); conditions: RealTime-Glo luminescence; series mostly up to 76.8 µM; also: nearly all actives have a fitted effect of over 55% in size
Inconclusive results are not listed. Activity calls are given as the source filed them. Calls follow the shape of the dose curve; as a rule, active = well fitted cell-killing curve with a large enough effect in the repeat runs; inconclusive = weak or mixed curves; inactive = flat fitted curve, though single readings scatter.
Answer with one of the outcomes given here: y (active), n (inactive)

MOLECULE	CLASS_LABEL
CCC(C)Nc1c([N+](=O)[O-])cc(C(C)(C)C)cc1[N+](=O)[O-] (configuration not stated)	n
CCC(C)Br (configuration not stated)	n

Which result was noted for this molecule in the test: Cc1ccc([N+](=O)[O-])[c]2c1[O][Hg]2
y

Tell me the assay call for CC[C@]1(O)CC[C@H]2[C@@H]3CCC4=CCCC[C@@H]4[C@H]3CC[C@@]21C please.
n

Can you look up the reported call for CC(C)=CC1C(C(=O)OC(C#N)c2cccc(Oc3ccccc3)c2)C1(C)C (configuration not stated) for me?
n

Outcome? CCOP(=O)(Sc1ccccc1)Sc1ccccc1
n

Which outcome was assigned to c1ccc(N=NNc2ccccc2)cc1 in this test?
n

Which outcome was entered for the molecule CCCCC(CC)COC(=O)OOC(C)(C)C (configuration not stated) in this test?
n

Hi, do you know how OCC(Br)CBr (configuration not stated) came out in this test?
n

Please share the test call associated with CC(=O)[O-].CC(=O)[O-].O.O.O.[Pb+2] .
n

Fill in: this test's call for CSC1=N[C@@](C)(c2ccccc2)C(=O)N1Nc1ccccc1 is ___
n

Assay result, entry c1ccc(Nc2ccc(Nc3ccccc3)cc2)cc1 — outcome?
n

I would be grateful if you could indicate the recorded call for N#Cc1c2ccccc2cc2ccccc12 .
n

Outcome? C[C@H]1[C@H](c2ccc(Cl)cc2)SC(=O)N1C(=O)NC1CCCCC1
n

Any idea what this test logged for O=C(Nc1ccc(F)cc1F)c1cccnc1Oc1cccc(C(F)(F)F)c1 ?
n

Could you kindly confirm the outcome this assay logged for CC[C@H](C)[C@H]1O[C@]2(C=C[C@@H]1C)C[C@@H]1C[C@@H](C/C=C(\C)[C@@H](O[C@H]3C[C@H](OC)[C@@H](O[C@H]4C[C@H](OC)[C@@H](NC)[C@H](C)O4)[C@H](C)O3)[C@@H](C)/C=C/C=C3\CO[C@@H]4[C@H](O)C(C)=C[C@@H](C(=O)O1)[C@]34O)O2 ?
y

What did the test return for CCN(CC)C(=O)N[C@@H]1C=C2c3cccc4[nH]cc(c34)C[C@@H]2N(C)C1 ?
n

Could you please tell me the result logged for Clc1ccc(C(c2ccc(Cl)cc2)C(Cl)Cl)cc1 in this assay?
n

Record lookup: outcome of this test for CN(C)CCc1c[nH]c2ccccc12 ?
n

Tell me the recorded outcome of this test for COC(=O)C(C)N(C(=O)c1ccco1)c1c(C)cccc1C (configuration not stated) .
n

What is the recorded call for this molecule in the test? Fc1ccc(C(OCCN2CCN(CCCc3ccccc3)CC2)c2ccc(F)cc2)cc1
y

Recorded call for CC(C)=CCN1CC[C@@]2(C)c3cc(O)ccc3C[C@@H]1[C@@H]2C ?
n

Record lookup: outcome of this test for CNC(=O)Oc1cc(C)cc(C(C)C)c1 ?
n

Write down the call the test reported for this molecule. Item: CCCCON=O
n

Entry Cc1c([N+](=O)[O-])c(C)c([N+](=O)[O-])c(C(C)(C)C)c1[N+](=O)[O-] : call = ?
n
